- Test system: RIVA
- assayMethodText: growth inhibition by drug alone (1 - RLU/untreated control) (fraction); higher = stronger inhibition
- conditionLabel: 10 nM; time (day): 4; 177Lu-lilotomab satetraxetan 0 ug/ml
Where a name gives a salt, the structure may show the parent alone.

compound: Nc1cccc2c1CN(C1CCC(=O)NC1=O)C2=O (centres undefined) [Lenalidomide]
targetSystem: RIVA
growth inhibition by drug alone: -0.0398

compound: Clc1ccc(Nc2nnc(Cc3ccncc3)c3ccccc23)cc1 [Vatalanib dihydrochloride (PTK787)]
targetSystem: RIVA
growth inhibition by drug alone: -0.0522

compound: O=C(Nc1ncc([N+](=O)[O-])s1)c1ccc([N+](=O)[O-])c(Cl)c1
targetSystem: RIVA
growth inhibition by drug alone: 0.114

compound: CC1(CN2CCC(n3c(=O)[nH]c4ccccc43)CC2)OCc2ccccc2-n2cccc21 (centres undefined)
targetSystem: RIVA
growth inhibition by drug alone: -0.102
